tested system: L-lactate dehydrogenase (Plasmodium falciparum (isolate CDC / Honduras)) (UniProt Q27743)
Sequence (Q27743 whole entry, looked up): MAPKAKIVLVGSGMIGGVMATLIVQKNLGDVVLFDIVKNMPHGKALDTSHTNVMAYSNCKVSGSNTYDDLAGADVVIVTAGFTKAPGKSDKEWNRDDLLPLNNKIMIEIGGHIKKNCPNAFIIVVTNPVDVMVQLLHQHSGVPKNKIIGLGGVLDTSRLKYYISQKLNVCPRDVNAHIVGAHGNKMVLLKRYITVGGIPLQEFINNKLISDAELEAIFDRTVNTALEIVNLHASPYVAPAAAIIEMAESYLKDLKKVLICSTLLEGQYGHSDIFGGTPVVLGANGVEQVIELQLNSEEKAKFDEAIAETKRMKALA
assay overview: PfLDH activity inhibition – cell lysate, 3D7 strain, counter-screen for P. falciparum growth inhibition project (AID 2304);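 further: 0% = vehicle and 100% = reference inhibitor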
conditions: P. falciparum 3D7 crude extract, LDH APAD/NBT absorbance; at 2 µM; stronger effect = higher value
Below is a list of entries, each paired with its recorded inhibition value.
readout: inhibition (%)

>>> observed("CC(C)NC(=O)Cn1cc(C2CCN(CC3CCN(C(=O)/C=C/c4ccc(Cl)c(Cl)c4)CC3)CC2)c2ccccc21")
-2
>>> observed("O=C(CNC1CCCCC1)c1ccc(O)c(O)c1")
4
>>> observed("CCCCCC(C)C(C)c1cc(O)c2c(c1)O[C@@]1(C(C)C)CC(O)[C@H](C)[C@@H]2C1 (stereo not given in full)")
-3
>>> observed("COc1cc2nc(N(C)C3CCN(Cc4ccccc4)CC3)nc(N)c2cc1OC")
1
>>> observed("O=C(NC1CCC(CN2CCC(c3c[nH]c4ccccc34)CC2)CC1)[C@H]1Cc2ccccc2CN1 (stereo not given in full)")
3
>>> observed("COCCSc1ccc(CC(C)NCC(O)c2cccc(Cl)c2)cc1 (stereo not given)")
-1
>>> observed("CCN1CC=C(c2c[nH]c3ccccc23)CC1")
-1
>>> observed("S=C(Nc1ccccc1Cl)NC1CCC(CN2CCC(c3c[nH]c4ccccc34)CC2)CC1 (stereo not given)")
8
>>> observed("CCCc1ccc2c(c1O)CCC(N(CCC)CCC)C2 (stereo not given)")
3
>>> observed("CC(=O)Nc1ccc(OCCN(CC(C)C)c2ccc(C#N)c(C(F)(F)F)c2)c(Cl)c1")
2
>>> observed("Cc1ccc(CC(C)NCC(O)c2cccc(C(F)(F)F)c2)cc1F (stereo not given)")
3
>>> observed("CN(Cc1ccccc1)C1CCN(CCc2c[nH]c3ccc(F)cc23)CC1")
5
>>> observed("OC1(CNCc2ccccc2)CCN(CCc2c[nH]c3ccc(F)cc23)CC1")
-2
>>> observed("COc1ccc(C(=O)[C@H]2C[C@@H]2CN2CC=C(c3c[nH]c4ccc(OC)nc34)CC2)cc1")
-3
>>> observed("CN(C(=O)OCc1ccccc1)C1CCC(CCN2CCC3(CC2)C(=O)NCN3c2cccc(C(F)(F)F)c2)(c2ccccc2)CC1 (stereo not given)")
-2
>>> observed("C=C[C@H]1CN2CC[C@H]1C[C@H]2[C@H](OS(=O)(=O)O)c1ccnc2ccccc12")
5
>>> observed("CC(Cc1ccc(CSC(C)C)cc1)NCC(O)c1cccc(Cl)c1 (stereo not given)")
-8
>>> observed("O=C(/C=C/C=C/c1ccccc1)NC1CCC(CN2CCC(c3c[nH]c4ccccc34)CC2)CC1 (stereo not given)")
7
>>> observed("CN(C)c1cccc(CN2CC=C(c3c[nH]c4ccc(Cl)cc34)CC2)c1")
3
>>> observed("Cc1c(C)c2c(c(C)c1O)CC[C@](C)(C(=O)N1CCC(CN3CCC(c4c[nH]c5ccccc45)CC3)CC1)O2")
2
